Recorded Ki by entry
molecular target: N-terminally truncated (Δ 27) Abl kinase (Homo sapiens); test: Abl Kinase Activity Inhibition Assay, coupled enzyme system; details: 110 μM ATP, 30° C.
Sequence (P00519 whole entry, stated change not applied, the tested form may be a part): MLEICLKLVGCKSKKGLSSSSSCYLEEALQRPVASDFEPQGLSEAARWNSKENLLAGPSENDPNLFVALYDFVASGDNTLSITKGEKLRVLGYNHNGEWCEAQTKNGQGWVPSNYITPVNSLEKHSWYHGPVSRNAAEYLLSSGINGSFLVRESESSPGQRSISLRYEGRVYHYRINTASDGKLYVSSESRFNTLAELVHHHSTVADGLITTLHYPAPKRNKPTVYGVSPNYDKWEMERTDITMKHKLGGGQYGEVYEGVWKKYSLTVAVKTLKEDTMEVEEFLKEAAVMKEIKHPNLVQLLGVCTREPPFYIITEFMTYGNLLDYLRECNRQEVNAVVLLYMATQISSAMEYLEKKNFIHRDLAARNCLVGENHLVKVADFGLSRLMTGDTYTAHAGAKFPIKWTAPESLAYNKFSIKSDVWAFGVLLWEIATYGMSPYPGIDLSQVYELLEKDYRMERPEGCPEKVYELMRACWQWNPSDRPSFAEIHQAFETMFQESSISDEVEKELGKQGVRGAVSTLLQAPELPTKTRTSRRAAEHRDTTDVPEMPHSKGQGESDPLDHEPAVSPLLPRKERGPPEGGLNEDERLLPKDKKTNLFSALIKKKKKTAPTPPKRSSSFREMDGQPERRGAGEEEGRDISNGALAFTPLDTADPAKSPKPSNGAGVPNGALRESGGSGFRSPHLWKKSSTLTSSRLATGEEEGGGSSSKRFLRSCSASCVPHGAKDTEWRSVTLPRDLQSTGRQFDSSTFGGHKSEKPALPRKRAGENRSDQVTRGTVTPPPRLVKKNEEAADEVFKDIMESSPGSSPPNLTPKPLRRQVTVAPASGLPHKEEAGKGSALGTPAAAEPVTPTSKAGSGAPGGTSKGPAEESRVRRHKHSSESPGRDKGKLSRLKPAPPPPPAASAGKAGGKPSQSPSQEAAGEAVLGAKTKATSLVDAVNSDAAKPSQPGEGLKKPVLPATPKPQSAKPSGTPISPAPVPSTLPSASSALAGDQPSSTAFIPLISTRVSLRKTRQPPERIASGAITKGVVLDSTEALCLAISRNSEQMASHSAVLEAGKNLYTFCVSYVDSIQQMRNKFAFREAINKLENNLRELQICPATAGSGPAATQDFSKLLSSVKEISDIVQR

compound | system tested | Ki
Cc1cc(Nc2cc(N3CCC(F)C3)nc(Sc3ccc(NC(=O)CC(F)(F)F)cc3)n2)[nH]n1 (stereo not shown) [Compound I-78] | N-terminally truncated (Δ 27) Abl kinase (Homo sapiens) | < 0.025 µM
Cc1cnc(Nc2cc(N3CCC(N4CCCC4)CC3)nc(Sc3ccc(NC(=O)C4CC4)cc3)n2)s1 | N-terminally truncated (Δ 27) Abl kinase (Homo sapiens) | < 0.025 µM

Request: Name the reported Ki value associated with the compound CCC(=O)Nc1ccc(Sc2nc(Nc3cc(C)n[nH]3)cc(N3CC4CN(C(C)C)CC4C3)n2)cc1 (stereo not shown)
Response: < 0.025 µM

Request: Which value of Ki has been reported for CN[C@H]1CCN(c2cc(Nc3ncc(C)s3)nc(Sc3ccc(NC(=O)C4CC4)cc3)n2)C1 in the records?
Response: < 0.025 µM

Request: Given CCN[C@H]1CCN(c2cc(Nc3cc(C)n[nH]3)nc(Sc3ccc(NC(=O)CC)cc3)n2)C1 , state its recorded Ki.
Response: < 0.025 µM

Request: Value lookup for Ki; key = Cc1cnc(Nc2cc(N3CC[C@H](O)C3)nc(Sc3ccc(NC(=O)C4CC4)cc3)n2)s1
Response: 0.025 to 0.1 µM

Request: Ki lookup needed for Cc1cnc(Nc2cc(N3CCC(N4CCOCC4)CC3)nc(Sc3ccc(NC(=O)C4CC4)cc3)n2)s1 , thanks.
Response: < 0.025 µM
